target: DLG4_3, P78352; test: holdup assay; parameters: key: below the threshold = too weak to quantify, mostly under pKd 3.1 to 4; conditions: plain residues with an end cap or a label only (N-terminal biotin on a linker: ttds)
Sequence (P78352 306-403): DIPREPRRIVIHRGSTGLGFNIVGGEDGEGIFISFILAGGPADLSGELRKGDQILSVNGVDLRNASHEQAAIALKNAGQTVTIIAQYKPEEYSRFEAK
Would you mind labelling by pKd? At or over 4 is Satisfied, under is Not satisfied.

INSERT INTO results (binder, category_label) VALUES
  ('SKPTRRETEV [HPV35-E6, P27228]', 'Satisfied'),
  ('RPLPRKVSQL [DOCK4, Q8N1I0]', 'Not satisfied'),
  ('QRQARSETLV [HPV59-E6, Q81964]', 'Satisfied'),
  ('RLQRRRETQV [HPV18-E6, P06463]', 'Satisfied'),
  ('SSLQSLETSV [ATP2B4, P23634]', 'Satisfied'),
  ('KKYVDAETSL [SLC4A7, Q9Y6M7]', 'Not satisfied'),
  ('RHTTSTETAV [HPV30-E6, P36809]', 'Satisfied'),
  ('VDFPPKESSL [ACVR2A, P27037]', 'Not satisfied'),
  ('RLPKIKETTV [FRMPD4, Q14CM0]', 'Satisfied');

Entry source: paper PMC9482650
